measured-target: Recombinant human caspase-4 (Homo sapiens)
Sequence (P49662 81-270 limits assumed): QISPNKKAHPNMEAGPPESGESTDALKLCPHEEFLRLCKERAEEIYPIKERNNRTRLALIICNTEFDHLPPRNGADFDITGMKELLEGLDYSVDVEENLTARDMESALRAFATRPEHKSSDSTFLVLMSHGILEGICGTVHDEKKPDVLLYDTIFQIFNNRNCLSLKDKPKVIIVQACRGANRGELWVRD
Sequence (P49662 290-377 limits assumed): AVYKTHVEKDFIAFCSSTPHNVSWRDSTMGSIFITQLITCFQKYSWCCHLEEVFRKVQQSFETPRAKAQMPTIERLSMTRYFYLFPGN
assay-text: M867 potency against recombinant human caspase-4
observable: Ki (nM)
Provide the reading as a plain figure in nM.

Prompt: Identify the measured Ki of `CCCCCN(C)CC(=O)[C@H](CC(=O)O)NC(=O)[C@H](CC)n1cc(C(C)(C)C)nc(NCc2nonc2C)c1=O` for Recombinant human caspase-4 (Homo sapiens).
Response: 495

---

measured-target: Recombinant human caspase-1 (Homo sapiens)
Sequence (P29466 120-297 limits assumed): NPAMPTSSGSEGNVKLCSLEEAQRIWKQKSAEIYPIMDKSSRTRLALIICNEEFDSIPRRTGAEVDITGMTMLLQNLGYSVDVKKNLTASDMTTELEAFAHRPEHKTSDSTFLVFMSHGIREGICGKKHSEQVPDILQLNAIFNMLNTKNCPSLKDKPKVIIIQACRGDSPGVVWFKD
Sequence (P29466 317-404 limits assumed): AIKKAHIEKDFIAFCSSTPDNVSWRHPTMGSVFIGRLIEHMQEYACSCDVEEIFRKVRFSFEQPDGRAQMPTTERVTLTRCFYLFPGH
assay-text: M867 potency against recombinant human caspase-1
observable: Ki (nM)
Output spec: scalar in nM, unitless text.

Prompt: Request: Ki, test system Recombinant human caspase-1 (Homo sapiens), entry `CCCCCN(C)CC(=O)[C@H](CC(=O)O)NC(=O)[C@H](CC)n1cc(C(C)(C)C)nc(NCc2nonc2C)c1=O`
Response: 107

---

measured-target: Recombinant human caspase-6 (Homo sapiens)
Sequence (P55212 24-179 limits assumed): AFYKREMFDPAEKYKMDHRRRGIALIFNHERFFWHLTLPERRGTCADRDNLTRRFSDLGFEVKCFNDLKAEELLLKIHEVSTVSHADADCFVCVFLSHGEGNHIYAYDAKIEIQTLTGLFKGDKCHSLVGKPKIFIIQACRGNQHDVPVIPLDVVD
Sequence (P55212 194-293 limits assumed): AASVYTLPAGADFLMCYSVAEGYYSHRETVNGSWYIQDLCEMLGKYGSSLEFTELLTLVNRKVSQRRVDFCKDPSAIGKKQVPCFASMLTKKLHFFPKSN
assay-text: M867 potency against recombinant human caspase-6
observable: pKi
Reminder that pKi is minus the log10 of a molar concentration.

Prompt: Form field: reported pKi of `CCCCCN(C)CC(=O)[C@H](CC(=O)O)NC(=O)[C@H](CC)n1cc(C(C)(C)C)nc(NCc2nonc2C)c1=O`
Response: 5.46

---

measured-target: Recombinant human caspase-5 (Homo sapiens, UniProt P51878)
Sequence (P51878 137-327 limits assumed): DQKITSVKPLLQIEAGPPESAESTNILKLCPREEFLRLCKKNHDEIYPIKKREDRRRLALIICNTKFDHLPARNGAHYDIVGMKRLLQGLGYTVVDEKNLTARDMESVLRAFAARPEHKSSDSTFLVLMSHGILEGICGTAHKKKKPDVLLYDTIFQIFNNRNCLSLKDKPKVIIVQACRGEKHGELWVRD
Sequence (P51878 347-434 limits assumed): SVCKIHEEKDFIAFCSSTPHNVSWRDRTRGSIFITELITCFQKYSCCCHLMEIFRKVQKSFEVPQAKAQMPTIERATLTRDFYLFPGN
assay-text: M867 potency against recombinant human caspase-5
observable: pKi
Formally, pKi is defined as -log10 of the concentration c, with c in mol/L.

Prompt: Identify the measured pKi of `CCCCCN(C)CC(=O)[C@H](CC(=O)O)NC(=O)[C@H](CC)n1cc(C(C)(C)C)nc(NCc2nonc2C)c1=O` for Recombinant human caspase-5 (Homo sapiens, UniProt P51878).
Response: 6.09

---

measured-target: Recombinant human caspase-8 (Homo sapiens)
Sequence (Q14790 217-374 limits assumed): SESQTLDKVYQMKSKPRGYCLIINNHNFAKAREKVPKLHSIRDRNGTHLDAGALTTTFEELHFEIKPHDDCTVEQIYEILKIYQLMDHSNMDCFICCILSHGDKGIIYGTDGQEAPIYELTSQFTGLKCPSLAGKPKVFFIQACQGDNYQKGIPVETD
Sequence (Q14790 385-479 limits assumed): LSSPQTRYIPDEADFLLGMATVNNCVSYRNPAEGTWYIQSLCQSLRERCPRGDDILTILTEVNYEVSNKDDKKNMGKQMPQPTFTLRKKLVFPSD
assay-text: M867 potency against recombinant human caspase-8
observable: pKi
A value of pKi is the negative decimal logarithm of a concentration given in moles per litre.

Prompt: Find the recorded pKi belonging to `CCCCCN(C)CC(=O)[C@H](CC(=O)O)NC(=O)[C@H](CC)n1cc(C(C)(C)C)nc(NCc2nonc2C)c1=O` and report it.
Response: 5.39

---

measured-target: Recombinant human caspase-3 (Homo sapiens, UniProt P42574)
Sequence (P42574 29-175 limits assumed): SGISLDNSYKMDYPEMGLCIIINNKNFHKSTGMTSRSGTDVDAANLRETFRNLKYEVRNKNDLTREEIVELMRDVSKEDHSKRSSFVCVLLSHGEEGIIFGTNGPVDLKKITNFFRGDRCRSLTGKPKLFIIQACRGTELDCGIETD
Sequence (P42574 176-277 limits assumed): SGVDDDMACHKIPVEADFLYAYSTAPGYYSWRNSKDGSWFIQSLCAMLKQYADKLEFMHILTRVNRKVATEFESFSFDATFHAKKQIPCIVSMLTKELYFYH
assay-text: M867 potency against recombinant human caspase-3
observable: pKi
Reminder that pKi is minus the log10 of a molar concentration.

Prompt: Value wanted: pKi (Recombinant human caspase-3 (Homo sapiens, UniProt P42574)) of entry `CCCCCN(C)CC(=O)[C@H](CC(=O)O)NC(=O)[C@H](CC)n1cc(C(C)(C)C)nc(NCc2nonc2C)c1=O`
Response: 8.85

---

assay-text: Drug levels in plasma, blood and spleen of rats under continuous i.v. infusion
Format: in vivo
conditions-used: rat, spleen, intravenous, 2 mg/kg/h
observable: concentration at 24 h (nM)
Note: unit nM is implicit; provide only the numeric part.

Prompt: Look at this molecule and give its reported concentration at 24 h. `CCCCCN(C)CC(=O)[C@H](CC(=O)O)NC(=O)[C@H](CC)n1cc(C(C)(C)C)nc(NCc2nonc2C)c1=O`
Response: 370
